Experiment: Solubility of EW-7197 at various pH values
Format: physicochemical
Details: hydrochloric acid buffer, pH 2, simulated gastric fluid, thermodynamic from solid, pH 2.0, Hydrochloric acid buffer; pH after equilibration 2.97; read-out: Solubility Trial 1

{"line-notation": "Cc1cccc(-c2[nH]c(CNc3ccccc3F)nc2-c2ccc3ncnn3c2)n1", "scale-unit": "µg/mL", "solubility": 2930}

* * *

Assay: Solubility of EW-7197 at various pH values
Type: physicochemical
Settings: hydrochloric acid buffer, pH 1.2, simulated gastric fluid, thermodynamic from solid, pH 1.2, Hydrochloric acid buffer; pH after equilibration 2.81; read-out: Solubility Trial 1
measured-endpoint: solubility

{"compound": "Cc1cccc(-c2[nH]c(CNc3ccccc3F)nc2-c2ccc3ncnn3c2)n1 [EW-7197]", "value": "25.1 mg/mL"}

* * *

Assay: Solubility of EW-7197 at various pH values
Assay type: physicochemical
Conditions: citrate buffer, pH 3, aqueous buffer, thermodynamic from solid, pH 3.0, Citrate buffer; pH after equilibration 3.30; read-out: Solubility Trial 2
measured-endpoint: solubility (µg/mL)

{"line-notation": "Cc1cccc(-c2[nH]c(CNc3ccccc3F)nc2-c2ccc3ncnn3c2)n1", "measured-endpoint": "solubility", "value": 1030}

* * *

Test: Solubility of EW-7197 at various pH values
Assay type: physicochemical
Settings: water, pH 7.17, water, thermodynamic from solid, Water; pH after equilibration 7.17; read-out: Solubility Trial 1

{"line-notation": "Cc1cccc(-c2[nH]c(CNc3ccccc3F)nc2-c2ccc3ncnn3c2)n1", "solubility / µg/mL": 9}

* * *

Assay: Solubility of EW-7197 at various pH values
Type: physicochemical
Details: citrate buffer, pH 4, aqueous buffer, thermodynamic from solid, pH 4.0, Citrate buffer; pH after equilibration 4.16; read-out: Solubility Trial 1

{"line-notation": "Cc1cccc(-c2[nH]c(CNc3ccccc3F)nc2-c2ccc3ncnn3c2)n1", "solubility / µg/mL": 110}

* * *

Experiment: Solubility of EW-7197 at various pH values
Assay type: physicochemical
Details: water, pH 7.17, water, thermodynamic from solid, Water; pH after equilibration 7.17; read-out: Solubility Trial 2

{"line-notation": "Cc1cccc(-c2[nH]c(CNc3ccccc3F)nc2-c2ccc3ncnn3c2)n1", "solubility": "9 µg/mL"}

* * *

Experiment: Solubility of EW-7197 at various pH values
Format: physicochemical
Conditions: water, pH 7.17, water, thermodynamic from solid, Water; pH after equilibration 7.17; read-out: Solubility Average (n = 2)

{"line-notation": "Cc1cccc(-c2[nH]c(CNc3ccccc3F)nc2-c2ccc3ncnn3c2)n1", "scale-unit": "µg/mL", "solubility": 9}

* * *

Assay: Solubility of EW-7197 at various pH values
Type: physicochemical
Settings: hydrochloric acid buffer, pH 2, simulated gastric fluid, thermodynamic from solid, pH 2.0, Hydrochloric acid buffer; pH after equilibration 2.97; read-out: Solubility Trial 2

{"line-notation": "Cc1cccc(-c2[nH]c(CNc3ccccc3F)nc2-c2ccc3ncnn3c2)n1", "solubility (mg/mL)": 2.88}

* * *

Assay: Solubility of EW-7197 at various pH values
Type: physicochemical
Settings: 0.1N NaOH, pH 12.86, aqueous buffer, thermodynamic from solid, pH 12.86, 0.1N NaOH; pH after equilibration 12.53; read-out: Solubility Trial 2
measured-endpoint: solubility (µg/mL)

{"molecule": "Cc1cccc(-c2[nH]c(CNc3ccccc3F)nc2-c2ccc3ncnn3c2)n1 [EW-7197]", "value": 478}

* * *

Assay: Solubility of EW-7197 at various pH values
Format: physicochemical
Details: water / aqueous solution, aqueous buffer, thermodynamic from solid, in an acceptable pH range for ophthalmic solution; read-out: water solubility
measured-endpoint: solubility

{"line-notation": "Cc1cccc(-c2[nH]c(CNc3ccccc3F)nc2-c2ccc3ncnn3c2)n1", "measured-endpoint": "solubility", "value": "10 to 20 µg/mL"}

* * *

Test: Solubility of EW-7197 at various pH values
Assay type: physicochemical
Settings: citrate buffer, pH 5, aqueous buffer, thermodynamic from solid, pH 5.0, Citrate buffer; pH after equilibration 4.90; read-out: Solubility Trial 1
measured-endpoint: solubility (µg/mL)

{"molecule": "Cc1cccc(-c2[nH]c(CNc3ccccc3F)nc2-c2ccc3ncnn3c2)n1 [EW-7197]", "measured-endpoint": "solubility", "value": 19}

* * *

Assay: Solubility of EW-7197 at various pH values
Type: physicochemical
Settings: 0.1N NaOH, pH 12.86, aqueous buffer, thermodynamic from solid, pH 12.86, 0.1N NaOH; pH after equilibration 12.53; read-out: Solubility Trial 1
measured-endpoint: solubility

{"line-notation": "Cc1cccc(-c2[nH]c(CNc3ccccc3F)nc2-c2ccc3ncnn3c2)n1", "value": "396 µg/mL"}

* * *

Assay: Solubility of EW-7197 at various pH values
Assay type: physicochemical
Conditions: phosphate buffer, pH 6, aqueous buffer, thermodynamic from solid, pH 6.0, Phosphate buffer; pH after equilibration 5.96; read-out: Solubility Trial 2

{"line-notation": "Cc1cccc(-c2[nH]c(CNc3ccccc3F)nc2-c2ccc3ncnn3c2)n1", "scale-unit": "µg/mL", "solubility": 12}

* * *

Assay: Solubility of EW-7197 at various pH values
Type: physicochemical
Conditions: hydrochloric acid buffer, pH 2, simulated gastric fluid, thermodynamic from solid, pH 2.0, Hydrochloric acid buffer; pH after equilibration 2.97; read-out: Solubility Average (n = 2)
measured-endpoint: solubility (µg/mL)

{"line-notation": "Cc1cccc(-c2[nH]c(CNc3ccccc3F)nc2-c2ccc3ncnn3c2)n1", "value": 2900}

* * *

Test: Solubility of EW-7197 at various pH values
Type: physicochemical
Settings: hydrochloric acid buffer, pH 1.2, simulated gastric fluid, thermodynamic from solid, pH 1.2, Hydrochloric acid buffer; pH after equilibration 2.81; read-out: Solubility Average (n = 2)
Text: In order to use EW-7197 for treating or preventing TFG-β signaling related ocular diseases, postsurgical peritoneal adhesions, postsurgical anastomotic strictures, hypertrophic scar, or keloid in human, formulation development of an aqueous solution containing appropriate amounts of EW-7197 is needed.

{"compound": "Cc1cccc(-c2[nH]c(CNc3ccccc3F)nc2-c2ccc3ncnn3c2)n1 [EW-7197]", "solubility / mg/mL": 25.1}

* * *

Assay: Solubility of EW-7197 at various pH values
Format: physicochemical
Settings: 0.1N NaOH, pH 12.86, aqueous buffer, thermodynamic from solid, pH 12.86, 0.1N NaOH; pH after equilibration 12.53; read-out: Solubility Average (n = 2)
measured-endpoint: solubility

{"line-notation": "Cc1cccc(-c2[nH]c(CNc3ccccc3F)nc2-c2ccc3ncnn3c2)n1", "measured-endpoint": "solubility", "value": "437 µg/mL"}
